# assayed system: Insulin-like growth factor 1 receptor (Homo sapiens, UniProt P08069)
# Sequence (P08069 31-736 limits assumed): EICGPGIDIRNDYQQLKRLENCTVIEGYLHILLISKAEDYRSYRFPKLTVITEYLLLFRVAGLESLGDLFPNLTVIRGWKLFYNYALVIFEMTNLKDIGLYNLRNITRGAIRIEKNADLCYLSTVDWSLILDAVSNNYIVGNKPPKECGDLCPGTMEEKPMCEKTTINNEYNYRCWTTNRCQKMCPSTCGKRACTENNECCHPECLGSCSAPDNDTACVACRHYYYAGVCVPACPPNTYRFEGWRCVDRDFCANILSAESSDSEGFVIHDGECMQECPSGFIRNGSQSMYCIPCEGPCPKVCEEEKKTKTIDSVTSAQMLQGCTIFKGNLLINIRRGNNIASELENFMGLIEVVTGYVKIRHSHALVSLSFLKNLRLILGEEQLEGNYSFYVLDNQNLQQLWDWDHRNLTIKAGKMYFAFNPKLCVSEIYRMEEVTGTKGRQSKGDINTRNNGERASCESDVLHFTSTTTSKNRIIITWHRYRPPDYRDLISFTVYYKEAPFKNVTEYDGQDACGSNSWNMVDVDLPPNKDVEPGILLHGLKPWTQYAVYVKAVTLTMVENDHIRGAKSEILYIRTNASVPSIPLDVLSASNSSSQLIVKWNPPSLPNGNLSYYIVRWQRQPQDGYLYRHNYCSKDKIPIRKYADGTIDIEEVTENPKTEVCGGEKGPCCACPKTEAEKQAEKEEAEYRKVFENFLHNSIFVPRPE
# Sequence (P08069 741-1367 limits assumed): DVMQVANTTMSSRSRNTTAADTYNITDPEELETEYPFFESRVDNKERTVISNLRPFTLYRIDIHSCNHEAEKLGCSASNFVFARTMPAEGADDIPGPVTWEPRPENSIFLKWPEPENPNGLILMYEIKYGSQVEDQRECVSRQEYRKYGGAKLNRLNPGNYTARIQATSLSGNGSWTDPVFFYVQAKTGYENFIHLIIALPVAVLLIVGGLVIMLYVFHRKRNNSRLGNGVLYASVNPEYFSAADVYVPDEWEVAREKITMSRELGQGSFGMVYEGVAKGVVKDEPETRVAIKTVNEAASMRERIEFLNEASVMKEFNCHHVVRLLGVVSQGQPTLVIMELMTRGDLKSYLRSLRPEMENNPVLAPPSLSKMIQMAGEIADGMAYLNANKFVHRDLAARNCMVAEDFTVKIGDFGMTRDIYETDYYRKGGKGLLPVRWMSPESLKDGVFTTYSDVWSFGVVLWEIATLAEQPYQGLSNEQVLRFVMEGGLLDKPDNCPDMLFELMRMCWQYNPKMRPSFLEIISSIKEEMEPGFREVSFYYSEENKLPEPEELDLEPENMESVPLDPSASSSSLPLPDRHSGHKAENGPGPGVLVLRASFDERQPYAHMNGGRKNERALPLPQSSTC
# protocol summary: Activity at pre-activated human GST-His6-tagged IGF-1R expressed in Sf9 cells assessed as initial phosphorylation rate at 10 uM measured every 2 mins for 60 mins by Michaelis-Menten constant based ADP Quest assay
Peptide text beside a SMILES is read from it.
measurement type: Activity (nM/s)

Look over these answered cases.
INSERT INTO measurements (compound, assayed_system, measurement_type, readout_number) VALUES
  ('CNC(=O)[C@H](Cc1c[nH]c2ccccc12)NC(=O)[C@H](CCC(=O)O)NC(=O)[C@H](Cc1ccccc1)NC(=O)[C@H](Cc1ccc(O)cc1)NC(=O)[C@H]1CCC[C@@H]1C(=O)O (HELM PEPTIDE1{[O=C(O)[C@H]1CCC[C@@H]1C(=O)[*:2]].Y.F.E.W.[CN[*:1]]}$$$$V2.0)', 'Insulin-like growth factor 1 receptor (Homo sapiens, UniProt P08069)', 'Activity', 0.84),
  ('CNC(=O)[C@H](Cc1ccc(Cl)c(Cl)c1)NC(=O)[C@H](CCC(=O)O)NC(=O)[C@H](Cc1ccccc1)NC(=O)[C@H](Cc1ccc(O)cc1)NC(=O)[C@H](CC(=O)O)NC(C)=O (HELM PEPTIDE1{[ac].D.Y.F.E.[O=C([C@H](Cc1ccc(Cl)c(Cl)c1)N[*:1])[*:2]].[CN[*:1]]}$$$$V2.0)', 'Insulin-like growth factor 1 receptor (Homo sapiens, UniProt P08069)', 'Activity', 2.1);

[I] CNC(=O)[C@H](Cc1ccccc1)NC(=O)[C@H](CCC(=O)O)NC(=O)[C@H](Cc1ccccc1)NC(=O)[C@H](Cc1ccc(O)cc1)NC(=O)[C@H]1CCC[C@@H]1C(=O)O (HELM PEPTIDE1{[O=C(O)[C@H]1CCC[C@@H]1C(=O)[*:2]].Y.F.E.F.[CN[*:1]]}$$$$V2.0)
[II] CNC(=O)[C@H](Cc1ccccc1)NC(=O)[C@H](CCC(=O)O)NC(=O)[C@H](Cc1ccccc1)NC(=O)[C@H](Cc1ccc(O)cc1)NC(=O)[C@@H]1CCCC[C@@H]1C(=O)O (HELM PEPTIDE1{[O=C(O)[C@H]1CCCC[C@H]1C(=O)[*:2]].Y.F.E.F.[CN[*:1]]}$$$$V2.0)
Req: Which of the two items, I and II , has the greater recorded Activity? Your answer should be the label attached to the chosen record.
Resp: II
(II: 1.1 nM/s, I: 0.24 nM/s)
